- Test system: platelets
- assay.protocol: Agonist-induced platelet granule secretion / activation (P-selectin expression by flow cytometry; ADP/ATP release)
- Format: cell-based, human
- measurement.setup: Homo sapiens, Platelet, agonists SFLLR and U-46619; read-out: IC50 SFLLR- and U-46619-induced activation
Entries annotated with measured IC50
Express it in µM; write the number only.

1. CC1CC(=O)NN=C1c1ccc(Cl)cc1 (stereo not shown)
0.3

Then this compound:
Exam item: Return reported IC50 for target or system platelets, item CC1CC(=O)NN=C1c1ccc(N)c([N+](=O)[O-])c1 (stereo not shown) .
Marked response: 0.3

###

- Tested on: platelets
- assay.protocol: Agonist-induced platelet granule secretion / activation (P-selectin expression by flow cytometry; ADP/ATP release)
- Type: cell-based, human
- measurement.setup: Homo sapiens, Platelet, agonist U-46619; read-out: IC50s of inhibition of platelet granule secretion induced with U-46619
- Experimental: In order to monitor ATP release, a cocktail of 100 μM SFLLR (synthesized using solid phase Fmoc chemistry on an Applied Biosystems model 430A peptide synthesizer) and 3 mg/ml of luciferin/luciferase (Sigma, St. Louis, Mo.) in a volume of 10 μl is added to 20 μl of PRP. Samples are immediately analyzed for luminescence. Activated platelets supply the ATP necessary for luminescence of the luciferin/luciferase assay. […]
Entries annotated with measured IC50
Express it in µM; write the number only.

Solved entries:
1) CCOC(=O)C1(C2(O)C(=O)c3ccccc3C2=O)CCCC1=O (centres unmarked)
30
2) Nc1cc2cccnc2c2ncccc12 [[1,10]Phenanthroline-5-ylamine]
30
3) CC(=O)OC(CC(=O)c1ccc(Cl)cc1Cl)C(Cl)(Cl)Cl (centres unmarked)
20
4) O=C(CN1CCOCC1)N1c2ccccc2Sc2ccc(C(F)(F)F)cc21
100

Then this compound:
Exam item: Return reported IC50 for target or system platelets, item Cn1cc(/C=N/NC(N)=O)c2ccccc21 .
Marked response: 20

Reference for the values: patent US20070060605A1
